pIC50 overview
Molecular target: human MC5R (hMC5R) (Homo sapiens, UniProt P33032)
Construct: purchased Perkin Elmer RBXMC5M400UA
Sequence (P33032 whole entry): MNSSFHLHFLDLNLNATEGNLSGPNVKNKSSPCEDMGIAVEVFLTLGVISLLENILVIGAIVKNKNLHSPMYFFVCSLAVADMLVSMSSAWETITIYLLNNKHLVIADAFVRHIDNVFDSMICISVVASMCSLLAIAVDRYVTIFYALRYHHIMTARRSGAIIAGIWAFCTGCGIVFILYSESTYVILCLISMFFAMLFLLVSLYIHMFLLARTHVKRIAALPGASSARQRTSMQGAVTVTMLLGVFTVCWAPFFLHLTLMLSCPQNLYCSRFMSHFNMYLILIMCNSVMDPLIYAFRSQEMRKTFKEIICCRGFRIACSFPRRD
Assay: Human MC5R radioligand binding assay (membranes, [125I] NDP-MSH displacement)
Settings: hMC5R binding; tested as trifluoroacetate or hydrochloride salts, or free bases; read-out: MC5R radioligand IC50
pIC50: −log10 of the molar value.

Solved entries (count: 5):
{"COMPOUND": "Cc1cc(C)cc(CN2CC[C@@H](CNC(=O)c3ccc4ccccc4c3)N[C@@H](CCCNC(=N)N)C2=O)c1 [Compound 286]", "OBSERVABLE": "pIC50", "READING": "> 6.00"}
{"COMPOUND": "CC[C@H](CN1CC[C@@H](CNC(=O)c2ccc(Cl)c(Cl)c2)N[C@@H](CCN2CCCCC2)C1=O)C(C)C [Compound 462]", "OBSERVABLE": "pIC50", "READING": "> 7.00"}
{"COMPOUND": "CC[C@H](CN1CC[C@@H](CNC(=O)c2ccc(Cl)c(Cl)c2)N[C@@H](CCN2CCN(C)CC2)C1=O)c1ccccc1 [Compound 431]", "OBSERVABLE": "pIC50", "READING": "> 7.00"}
{"COMPOUND": "CCC(CN1CC[C@@H](CNC(=O)/C=C/c2ccc(Cl)cc2)N[C@@H](CCN)C1=O)c1ccccc1 (some centres unmarked) [Compound 353]", "OBSERVABLE": "pIC50", "READING": "> 7.00"}
{"COMPOUND": "CNC(=N)NCCC[C@@H]1N[C@H](CNC(=O)[C@H]2Cc3ccccc3CN2)CCN(CC(c2ccccc2)c2ccccc2)C1=O [Compound 130]", "OBSERVABLE": "pIC50", "READING": "> 5.00"}

The compound listed as O=C(NC[C@@H]1CCN(CC(c2ccccc2)c2ccccc2)C(=O)[C@H](CCCNC2CCC2)N1)c1ccc2ccccc2c1 [Compound 247] has a reported pIC50 of > 7.00

The compound listed as CC[C@H](CN1CC[C@@H](CNC(=O)c2csc(-c3ccccc3)n2)N[C@@H](CCN2CCCCC2)C1=O)c1ccccc1 [Compound 496] has a reported pIC50 of > 7.00

These measurements were taken from patent US8008291B2.
